The reported measurements were obtained from the supplement of paper PMC12350171.

- Test system: Haemophilus parainfluenzae
- Protocol summary: growth AUC normalised to DMSO control (fraction of control); higher = less growth inhibition, active = hit call of the paper
- Test parameters: 20 µM
Counter-ions that a name gives are not always drawn.
// one of Yes for active, No for inactive, no free text

Would you please look over these solved cases?
compound="CN(C)[C@@H]1C(=O)C(C(N)=O)=C(O)[C@@]2(O)C(=O)C3=C(O)c4c(O)ccc(Cl)c4[C@@H](O)[C@H]3C[C@@H]12 [Demeclocycline hydrochloride]" category_label=Yes
compound="CNCCc1ccccn1 [Betahistine mesylate]" category_label=No
compound="Cc1cnc(NC(=O)C2=C(O)c3ccccc3S(=O)(=O)N2C)s1 [Meloxicam]" category_label=No
compound="O=C(N/N=C/c1ccc([N+](=O)[O-])o1)c1ccc(O)cc1 [Nifuroxazide]" category_label=Yes

What did the test return for O=C(O)/C=C/c1ccc(Cn2ccnc2)cc1 [Ozagrel hydrochloride] ?
No

###

- Test system: Salmonella enterica typhimurium
- Protocol summary: growth AUC normalised to DMSO control (fraction of control); higher = less growth inhibition, active = hit call of the paper
- Test parameters: 20 µM
Where a name gives a salt, the structure may show the parent alone.
// one of active, inactive, no free text

molecule="CN1[C@@H]2CC[C@H]1C[C@@H](OC(=O)C(CO)c1ccccc1)C2 (stereo partly drawn) [Atropine sulfate monohydrate]" tested_target="Salmonella enterica typhimurium" category_label=inactive
molecule="S=C(NC1CCCCC1)N1CCC(c2cnc[nH]2)CC1 [Thioperamide maleate]" tested_target="Salmonella enterica typhimurium" category_label=inactive

Read the next record carefully.
What did the test return for CCn1cc(C(=O)O)c(=O)c2cc3c(cc21)OCO3 ?
active

###

- Tested on: S. enterica typhimurium WT
- Protocol summary: growth AUC normalised to DMSO control (median) (fraction of control); higher = less growth inhibition, active = hit call of the paper
- Test parameters: 20 µM
Counter-ions that a name gives are not always drawn.
Parameter: growth AUC normalised to DMSO control
Number, no unit, nothing else.

// solved cases for growth AUC normalised to DMSO control follow
molecule=C#C[C@]1(O)CC[C@H]2[C@@H]3CCC4=CC(=O)CCC4=C3C=C[C@@]21CC parameter="growth AUC normalised to DMSO control" recorded_value=1.01
molecule=C[C@@H]1CC[C@H]2[C@@H](C)C(=O)O[C@@H]3O[C@@]4(C)CC[C@@H]1[C@]32OO4 parameter="growth AUC normalised to DMSO control" recorded_value=0.996
molecule="CCNCC(O)c1cccc(O)c1 (stereo not given) [Etilefrine hydrochloride]" parameter="growth AUC normalised to DMSO control" recorded_value=0.993
molecule="CC(=O)O[C@H]1C[C@H](O[C@H]2[C@@H](O)C[C@H](O[C@H]3[C@@H](O)C[C@H](O[C@H]4CC[C@@]5(C)[C@H](CC[C@@H]6[C@@H]5C[C@@H](O)[C@]5(C)[C@@H](C7=CC(=O)OC7)CC[C@]65O)C4)O[C@@H]3C)O[C@@H]2C)O[C@H](C)[C@H]1O[C@@H]1O[C@H](CO)[C@@H](O)[C@H](O)[C@H]1O [Lanatoside C]" parameter="growth AUC normalised to DMSO control" recorded_value=1.01

Okay, now this molecule:
// query growth AUC normalised to DMSO control value for entry C[CH2][Hg][S]c1ccccc1C(=O)[O-].[Na+]
0.91

###

- Tested on: Haemophilus parainfluenzae
- Protocol summary: growth AUC normalised to DMSO control (fraction of control); higher = less growth inhibition, active = hit call of the paper
- Test parameters: 20 µM
// one of active, inactive, no free text

molecule="CCOCCn1c(N2CCCN(C)CC2)nc2ccccc21 [Emedastine difumarate]" tested_target="Haemophilus parainfluenzae" category_label=inactive

What did the test return for CC[N+](C)(CC)CCC[n+]1c(-c2ccccc2)c2cc(N)ccc2c2ccc(N)cc21 [Propidium iodide] ?
inactive

###

- System: Haemophilus parainfluenzae
- Protocol summary: growth AUC normalised to DMSO control (fraction of control); higher = less growth inhibition, active = hit call of the paper
- Test parameters: 20 µM
Counter-ions that a name gives are not always drawn.
// one of active, inactive, no free text

compound="CN1CCN2c3ncccc3Cc3ccccc3C2C1 (centres undefined) [Mirtazapine]" category_label=inactive
compound="COc1cc(C(=O)NCc2ccc(OCCN(C)C)cc2)cc(OC)c1OC [Trimethobenzamide hydrochloride]" category_label=inactive
compound="COC(c1ccccc1)(c1ccccc1)[C@H](Oc1nc(C)cc(C)n1)C(=O)O [Ambrisentan]" category_label=inactive

What did the test return for CC(=O)N[C@@H](CC(=O)O)C(=O)N[C@@H](CCC(=O)O)C(=O)O [Spaglumic acid] ?
inactive

What did the test return for Nc1ccccc1S(N)(=O)=O [o-Sulfanilamide] ?
inactive

What did the test return for CNCC[C@@H](Oc1ccccc1C)c1ccccc1 [Tomoxetine hydrochloride] ?
inactive

###

- Test system: S. enterica typhimurium tolC KO
- Protocol summary: growth AUC normalised to DMSO control (median) (fraction of control); higher = less growth inhibition, active = hit call of the paper
- Test parameters: 20 µM
Counter-ions that a name gives are not always drawn.
Parameter: growth AUC normalised to DMSO control
Number, no unit, nothing else.

// solved cases for growth AUC normalised to DMSO control follow
compound="C[C@]12COC(=O)C[C@@H]1CC[C@@H]1[C@@H]2CC[C@@]2(C)[C@H]1CC[C@]2(C)O [Oxandrolone]" parameter="growth AUC normalised to DMSO control" recorded_value=0.991
compound="C#C[C@]1(O)CC[C@H]2[C@@H]3CCC4=CC(=O)CC[C@]4(C)[C@H]3CC[C@@]21C [Ethisterone]" parameter="growth AUC normalised to DMSO control" recorded_value=0.998
compound="Nc1ccncc1 [Dalfampridine]" parameter="growth AUC normalised to DMSO control" recorded_value=0.995
compound="C[C@]12CCC(=O)C(O)=C1CC[C@@H]1[C@@H]2CC[C@]2(C)C(=O)CC[C@@H]12 [Formestane]" parameter="growth AUC normalised to DMSO control" recorded_value=0.927
compound="CC(=O)OCC1=C(C(=O)O)N2C(=O)[C@@H](N)[C@H]2SC1 [Cephalosporanic acid, 7-amino]" parameter="growth AUC normalised to DMSO control" recorded_value=0.983

// query growth AUC normalised to DMSO control value for entry C[C@]12CCC(=O)C=C1C=C[C@@H]1[C@@H]2CC[C@@]2(C)[C@H]1CC[C@@]2(O)CCC(=O)O [Canrenoic acid potassium salt]
1

// query growth AUC normalised to DMSO control value for entry CN1C[C@H](C(=O)N[C@]2(C)O[C@@]3(O)[C@@H]4CCCN4C(=O)[C@H](Cc4ccccc4)N3C2=O)C[C@@H]2c3cccc4[nH]cc(c34)C[C@H]21 [Dihydroergotamine tartrate]
0.984

// query growth AUC normalised to DMSO control value for entry O=c1c2ccccc2[se]n1-c1ccccc1 [Ebselen]
0.971

// query growth AUC normalised to DMSO control value for entry CCN(C(C)=O)c1cccc(-c2ccnc3c(C#N)cnn23)c1 [Zaleplon]
0.992

// query growth AUC normalised to DMSO control value for entry CCC1(c2ccc(N)cc2)CCC(=O)NC1=O (centres undefined) [Glutethimide, para-amino]
0.993

// query growth AUC normalised to DMSO control value for entry C[N+]1(C)[C@@H]2CC[C@H]1C[C@@H](OC(=O)C(CO)c1ccccc1)C2 (some centres undefined) [Methylatropine nitrate]
1.02

// query growth AUC normalised to DMSO control value for entry O=C(CCCN1CCC2(CC1)C(=O)NCN2c1ccccc1)c1ccc(F)cc1 [Spiperone]
0.979

// query growth AUC normalised to DMSO control value for entry C#C[C@]1(O)C=C[C@H]2[C@@H]3CCC4=CC(=O)CC[C@@H]4[C@H]3CC[C@@]21CC [Gestodene]
0.995

// query growth AUC normalised to DMSO control value for entry COc1ccc(C(=O)N2CCCC2=O)cc1 [Aniracetam]
0.997

###

- Test system: P. vulgatus RND KO
- Protocol summary: growth AUC normalised to DMSO control (median) (fraction of control); higher = less growth inhibition, active = hit call of the paper
- Test parameters: 20 µM
Structures can show the parent of a compound that is named as a salt.
Parameter: growth AUC normalised to DMSO control

compound="C[N+](C)(C)CCCCCCCCCC[N+](C)(C)C [Decamethonium bromide]" parameter="growth AUC normalised to DMSO control" recorded_value="0.997 (inactive)"
compound=CCC1(CC)C(=O)C=CNC1=O parameter="growth AUC normalised to DMSO control" recorded_value="1.01 (inactive)"
compound="O=C(NCNC(=O)NC1C(=O)NC(=O)N1CO)NC1C(=O)NC(=O)N1CO (stereo unspecified)" parameter="growth AUC normalised to DMSO control" recorded_value="0.991 (inactive)"
compound=C[C@@H]1CC[C@H]2[C@@H](C)C(=O)O[C@@H]3O[C@@]4(C)CC[C@@H]1[C@]32OO4 parameter="growth AUC normalised to DMSO control" recorded_value="1.02 (inactive)"
compound="COc1ccc(OC)c(C(O)C(C)N)c1 (stereo unspecified) [Methoxamine hydrochloride]" parameter="growth AUC normalised to DMSO control" recorded_value="0.987 (inactive)"

// query growth AUC normalised to DMSO control value for entry C[N+]1(C)CCOC(O)(c2ccc(-c3ccc(C4(O)C[N+](C)(C)CCO4)cc3)cc2)C1 (stereo unspecified) [Hemicholinium bromide]
1 (inactive)

// query growth AUC normalised to DMSO control value for entry CN[C@@H]1C[C@@H](c2ccc(Cl)c(Cl)c2)c2ccccc21 [Indatraline hydrochloride]
0.973 (inactive)

// query growth AUC normalised to DMSO control value for entry COc1ccc(Cc2nccc3cc(OC)c(OC)cc23)cc1OC [Papaverine hydrochloride]
0.997 (inactive)

// query growth AUC normalised to DMSO control value for entry C=C1CC[C@@]2(O)[C@H]3Cc4ccc(O)c5c4[C@@]2(CCN3CC2CC2)[C@H]1O5 [Nalmefene hydrochloride]
1 (inactive)

// query growth AUC normalised to DMSO control value for entry NC(=O)CN1CCCC1=O
0.989 (inactive)

// query growth AUC normalised to DMSO control value for entry CC(C)C[C@H]1C(=O)N2CCC[C@H]2[C@]2(O)O[C@](NC(=O)[C@@H]3C=C4c5cccc6[nH]c(Br)c(c56)C[C@H]4N(C)C3)(C(C)C)C(=O)N12 [Bromocryptine mesylate]
1.01 (inactive)

// query growth AUC normalised to DMSO control value for entry COc1cc([C@@H]2c3cc4c(cc3[C@H](O)[C@H]3COC(=O)[C@H]23)OCO4)cc(OC)c1OC
1 (inactive)
